# Experimental System: plasmin (Homo sapiens)
# Construct: uPA mediates the proteolytic cleavage of plasminogen to give plasmin
# Sequence (P00747 581-810 limits assumed, species assumed): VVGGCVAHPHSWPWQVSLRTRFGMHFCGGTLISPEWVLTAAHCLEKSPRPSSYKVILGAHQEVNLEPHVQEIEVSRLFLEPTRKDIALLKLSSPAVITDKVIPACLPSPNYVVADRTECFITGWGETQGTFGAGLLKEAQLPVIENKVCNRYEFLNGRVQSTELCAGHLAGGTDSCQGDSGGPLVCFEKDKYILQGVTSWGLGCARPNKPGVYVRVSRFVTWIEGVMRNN
# Sequence (P00747 97-580 partner limits assumed, species assumed): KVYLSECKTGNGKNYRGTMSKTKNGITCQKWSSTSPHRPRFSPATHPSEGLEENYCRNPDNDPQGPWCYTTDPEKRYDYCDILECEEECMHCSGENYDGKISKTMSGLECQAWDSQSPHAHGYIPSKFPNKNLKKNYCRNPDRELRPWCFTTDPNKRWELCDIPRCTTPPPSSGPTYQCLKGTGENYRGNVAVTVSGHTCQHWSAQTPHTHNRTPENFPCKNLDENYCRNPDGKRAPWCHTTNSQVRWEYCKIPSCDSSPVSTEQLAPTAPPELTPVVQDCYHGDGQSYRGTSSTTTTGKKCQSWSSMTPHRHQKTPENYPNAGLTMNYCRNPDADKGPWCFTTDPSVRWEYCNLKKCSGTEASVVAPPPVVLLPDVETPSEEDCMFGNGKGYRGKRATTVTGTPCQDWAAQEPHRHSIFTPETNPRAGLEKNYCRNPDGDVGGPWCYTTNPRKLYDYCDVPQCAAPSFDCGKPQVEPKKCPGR
# Assay Summary: Selectivity: plasmin inhibition, chromogenic substrate S-2366
# Format: biochemical
Measured Attribute: IC50

Task: Item COC(=O)NC(Cc1ccc(NC(=N)N)cc1)P(=O)(Oc1ccccc1)Oc1ccccc1 (stereo not shown) [Compound 35a] has what recorded IC50?
Result: 12.8 µM

---

# Experimental System: tPA (Homo sapiens, UniProt P00750)
# Sequence (P00750 36-562, species assumed): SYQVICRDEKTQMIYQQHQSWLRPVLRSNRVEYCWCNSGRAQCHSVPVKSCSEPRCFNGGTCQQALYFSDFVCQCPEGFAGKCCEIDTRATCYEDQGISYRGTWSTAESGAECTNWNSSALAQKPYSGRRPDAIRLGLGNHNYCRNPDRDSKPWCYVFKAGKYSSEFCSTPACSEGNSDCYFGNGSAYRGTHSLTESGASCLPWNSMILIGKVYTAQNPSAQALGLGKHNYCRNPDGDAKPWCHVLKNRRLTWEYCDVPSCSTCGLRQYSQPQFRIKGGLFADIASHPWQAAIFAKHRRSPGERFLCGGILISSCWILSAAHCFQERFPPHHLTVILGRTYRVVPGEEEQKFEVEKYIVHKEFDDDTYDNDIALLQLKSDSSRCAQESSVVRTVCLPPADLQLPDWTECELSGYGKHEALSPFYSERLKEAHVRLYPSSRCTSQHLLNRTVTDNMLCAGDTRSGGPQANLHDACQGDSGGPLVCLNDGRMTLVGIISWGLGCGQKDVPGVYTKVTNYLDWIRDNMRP
# Assay Summary: Selectivity: tPA inhibition, chromogenic substrate S-2288
# Assay type: biochemical
# Assay Setup: 1.25 mM substrate, Tris pH 8.3
Threshold 20 µM: IC50 strictly smaller gives Satisfied, otherwise Not satisfied.

Previously resolved entries follow.
N=C(N)c1ccc(C(NC(=O)OCc2ccccc2)P(=O)(Oc2ccccc2)Oc2ccccc2)cc1 (centres unmarked)
Not satisfied
COC(=O)NC(Cc1ccc(NC(=N)N)cc1)P(=O)(Oc1ccccc1)Oc1ccccc1 (centres unmarked) [Compound 35a]
Not satisfied

Task: is_below(IC50, 20 µM) for N=C(N)c1ccc(CC(NC(=O)OCc2ccccc2)P(=O)(Oc2ccccc2)Oc2ccccc2)cc1 (centres unmarked) ?
Result: Satisfied

Task: is_below(IC50, 20 µM) for Cc1ccccc1S(=O)(=O)NC(Cc1ccc(NC(=N)N)cc1)P(=O)(Oc1ccccc1)Oc1ccccc1 (centres unmarked) ?
Result: Satisfied

Task: is_below(IC50, 20 µM) for CC(=O)Nc1ccc(OP(=O)(Oc2ccc(NC(C)=O)cc2)C(Cc2ccc(NC(=N)N)cc2)NS(C)(=O)=O)cc1 (centres unmarked) ?
Result: Satisfied
